Recorded values, source the Deep4Chem optical property database.

- Protocol Details: photoluminescence quantum yield (fraction); solvent given as SMILES
- Condition Notes: in CN(C)C=O
Test Readout: photoluminescence quantum yield

{"columns": ["Chemical Smiles", "photoluminescence quantum yield"],
 "data": [
  ["CCCCCCCCC1(CCCCCCCC)c2cc(-c3ccc([N+](=O)[O-])cc3)ccc2-c2ccc(-c3ccc([N+](=O)[O-])cc3)cc21", 0.31],
  ["C1=Cc2nc1c(-c1cccs1)c1ccc([nH]1)c(-c1cccs1)c1nc(c(-c3cccs3)c3ccc([nH]3)c2-c2cccs2)C=C1", 0.012]
]}

1 = CSc1sc(C(=O)c2ccccc2)c2nn[nH]c(=O)c12
2 = CCN1c2ccc(-c3cc(C(F)(F)F)[nH]n3)cc2Sc2cc(-c3cc(C(F)(F)F)[nH]n3)ccc21
Prompt: Parameter check: reported photoluminescence quantum yield is higher for which label, 1 or 2 ? Returns: label corresponding to the selected item.
Completion: 2
